The values you see were collected from ChEMBL document CHEMBL2218924.

Could you please report measured residual activity for the items listed next?
system_tested: Serine/threonine-protein kinase Sgk2 (Homo sapiens) (UniProt Q9HBY8)
Sequence (Q9HBY8 whole entry): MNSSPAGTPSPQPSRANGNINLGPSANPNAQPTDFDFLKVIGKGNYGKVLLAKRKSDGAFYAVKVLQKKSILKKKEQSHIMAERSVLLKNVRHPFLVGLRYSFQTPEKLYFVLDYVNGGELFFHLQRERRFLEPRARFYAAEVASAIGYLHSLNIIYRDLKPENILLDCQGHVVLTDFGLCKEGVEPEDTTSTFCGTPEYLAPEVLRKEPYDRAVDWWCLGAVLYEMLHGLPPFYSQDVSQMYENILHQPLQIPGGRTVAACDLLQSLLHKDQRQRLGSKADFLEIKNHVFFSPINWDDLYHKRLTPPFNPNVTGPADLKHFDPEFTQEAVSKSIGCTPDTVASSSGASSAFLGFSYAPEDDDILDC
details: at 1 µM
Numbers only; they are read as %.

## Task # return recorded residual activity for input Cc1cc(Nc2nc(-c3ccccc3)nc3ccccc23)n[nH]1
## Result 77

## Task # return recorded residual activity for input CC(=O)c1ccc(N2CCOCC2)cc1O
## Result 105

## Task # return recorded residual activity for input c1ccc2c(-c3ccncc3)c[nH]c2c1
## Result 92

## Task # return recorded residual activity for input Nc1ccc2ncnc(NCCc3ccc(Oc4ccccc4)cc3)c2c1
## Result 110

## Task # return recorded residual activity for input N#C/C(=C(\N)Sc1ccc(N)cc1)c1ccccc1C(F)(F)F
## Result 100

## Task # return recorded residual activity for input CC(C)n1cnc2/c(=N/c3cccc(Cl)c3)nc(NCCO)[nH]c21
## Result 105

## Task # return recorded residual activity for input COc1ccc(OC)c2c(=S)c3ccccc3[nH]c12
## Result 97

* * *

system_tested: Ribosomal protein S6 kinase alpha-5 (Homo sapiens) (UniProt O75582)
Sequence (O75582 whole entry, looked up): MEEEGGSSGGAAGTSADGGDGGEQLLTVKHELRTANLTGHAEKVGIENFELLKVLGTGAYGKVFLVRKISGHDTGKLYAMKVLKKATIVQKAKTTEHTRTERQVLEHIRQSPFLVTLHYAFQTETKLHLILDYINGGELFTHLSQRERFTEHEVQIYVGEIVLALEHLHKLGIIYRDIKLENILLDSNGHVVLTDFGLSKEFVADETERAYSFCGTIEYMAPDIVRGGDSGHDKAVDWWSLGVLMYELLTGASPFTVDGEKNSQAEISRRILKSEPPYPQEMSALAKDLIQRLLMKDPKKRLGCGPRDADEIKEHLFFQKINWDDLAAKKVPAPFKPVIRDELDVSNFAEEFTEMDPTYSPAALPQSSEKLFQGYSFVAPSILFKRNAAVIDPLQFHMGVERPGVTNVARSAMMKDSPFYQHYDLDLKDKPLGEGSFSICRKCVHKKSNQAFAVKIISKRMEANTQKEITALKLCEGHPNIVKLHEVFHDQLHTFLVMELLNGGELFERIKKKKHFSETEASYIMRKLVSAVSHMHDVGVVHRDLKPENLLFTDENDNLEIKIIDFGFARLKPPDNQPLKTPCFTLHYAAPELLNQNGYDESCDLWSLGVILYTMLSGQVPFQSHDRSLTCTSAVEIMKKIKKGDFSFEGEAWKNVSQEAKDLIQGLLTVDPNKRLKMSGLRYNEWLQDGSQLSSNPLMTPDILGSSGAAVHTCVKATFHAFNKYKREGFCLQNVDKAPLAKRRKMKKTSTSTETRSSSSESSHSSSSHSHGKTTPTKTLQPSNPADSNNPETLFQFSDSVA
details: at 1 µM
Could you please report measured residual activity for the items listed next?
Numbers only; they are read as %.

## Task # return recorded residual activity for input COc1ccc(OC)c2c(=S)c3ccccc3[nH]c12
## Result 93

## Task # return recorded residual activity for input CC(=O)c1ccc(N2CCOCC2)cc1O
## Result 133

## Task # return recorded residual activity for input Cn1cnc2cc3c(Nc4cccc(Br)c4)ncnc3cc21
## Result 107

## Task # return recorded residual activity for input Oc1c2ccccc2c2c3c(cccc13)N=N2
## Result 93

## Task # return recorded residual activity for input O=Nc1c(-c2c(O)[nH]c3ccccc23)[nH]c2ccccc12
## Result 61

## Task # return recorded residual activity for input Cc1cncc2cccc(S(=O)(=O)N3CCCN(C(=O)CN)C[C@H]3C)c12
## Result 126

## Task # return recorded residual activity for input N#C/C(=C(\N)Sc1ccc(N)cc1)c1ccccc1C(F)(F)F
## Result 85

## Task # return recorded residual activity for input O=C1c2ccccc2-[n+]2ccc3c([nH]c4ccccc43)c21
## Result 104

## Task # return recorded residual activity for input CC[n+]1c(/C=C/N(C)c2ccccc2)n(-c2ccccc2)c2ccc(-c3nc4ccccc4s3)cc21
## Result 139

## Task # return recorded residual activity for input Cc1ccc(S(=O)(=O)/C=C/C#N)cc1
## Result 111

## Task # return recorded residual activity for input Nc1nc(Nc2ccc(S(N)(=O)=O)cc2)nn1C(=S)Nc1c(F)cccc1F
## Result 81

* * *

system_tested: AMP-activated protein kinase (AMPK) alpha-1/beta-1/gamma-1 (Homo sapiens) (UniProt P54619+Q9Y478+Q13131)
Sequence (P54619 whole entry): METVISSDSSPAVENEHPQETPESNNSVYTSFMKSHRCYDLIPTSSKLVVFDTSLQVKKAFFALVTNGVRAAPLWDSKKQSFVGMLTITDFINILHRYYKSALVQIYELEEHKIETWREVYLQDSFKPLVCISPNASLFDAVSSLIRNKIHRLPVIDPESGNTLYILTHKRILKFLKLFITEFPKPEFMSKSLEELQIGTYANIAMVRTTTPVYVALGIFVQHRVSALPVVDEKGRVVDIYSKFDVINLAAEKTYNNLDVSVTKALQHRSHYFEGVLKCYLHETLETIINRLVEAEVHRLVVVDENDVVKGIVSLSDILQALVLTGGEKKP
Sequence (Q13131 whole entry partner): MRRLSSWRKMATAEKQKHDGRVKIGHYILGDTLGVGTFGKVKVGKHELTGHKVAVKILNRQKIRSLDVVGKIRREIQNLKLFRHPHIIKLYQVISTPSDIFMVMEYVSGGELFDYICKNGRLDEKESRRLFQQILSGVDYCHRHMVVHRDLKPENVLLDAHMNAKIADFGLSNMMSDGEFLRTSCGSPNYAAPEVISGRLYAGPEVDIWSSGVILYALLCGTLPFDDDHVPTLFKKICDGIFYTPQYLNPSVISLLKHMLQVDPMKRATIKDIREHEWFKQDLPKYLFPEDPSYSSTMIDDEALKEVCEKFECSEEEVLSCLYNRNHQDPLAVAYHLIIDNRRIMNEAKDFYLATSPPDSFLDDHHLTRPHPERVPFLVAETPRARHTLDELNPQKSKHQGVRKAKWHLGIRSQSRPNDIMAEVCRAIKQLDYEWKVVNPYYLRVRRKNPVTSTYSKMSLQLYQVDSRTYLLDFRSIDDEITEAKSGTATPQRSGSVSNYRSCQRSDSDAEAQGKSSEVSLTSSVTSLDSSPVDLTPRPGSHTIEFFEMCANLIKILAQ
Sequence (Q9Y478 2-270 partner limits assumed): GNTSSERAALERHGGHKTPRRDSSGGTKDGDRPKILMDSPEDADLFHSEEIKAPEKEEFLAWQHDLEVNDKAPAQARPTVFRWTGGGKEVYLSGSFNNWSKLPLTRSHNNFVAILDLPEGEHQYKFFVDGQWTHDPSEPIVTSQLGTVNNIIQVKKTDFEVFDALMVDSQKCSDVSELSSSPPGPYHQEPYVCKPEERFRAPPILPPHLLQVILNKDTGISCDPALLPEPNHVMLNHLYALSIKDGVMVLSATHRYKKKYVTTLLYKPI
details: at 10 µM
outcome_measure: residual activity (%)
Numbers only; they are read as %.

## Task # return recorded residual activity for input N#CCCc1ccc2c(c1)-c1[nH]c3ccc([N+](=O)[O-])cc3c1CC(=O)N2
## Result 29

## Task # return recorded residual activity for input C[C@@H](N)[C@H]1CC[C@H](C(=O)Nc2ccncc2)CC1
## Result 93

## Task # return recorded residual activity for input Cc1ccc(NC2=CC(=O)c3sc(C)nc3C2=O)cc1
## Result 84

## Task # return recorded residual activity for input O=C1NC(=O)c2cc(Nc3ccc(F)cc3)c(Nc3ccc(F)cc3)cc21
## Result 73

## Task # return recorded residual activity for input CCN(CC)CCCCN1c2ccccc2Oc2ccc(Cl)cc21
## Result 100

## Task # return recorded residual activity for input Nc1n[nH]c2nnc(-c3c(-c4ccccc4)nn4ccccc34)cc12
## Result 82

## Task # return recorded residual activity for input CC[n+]1c(/C=C/N(C)c2ccccc2)n(-c2ccccc2)c2ccc(-c3nc4ccccc4s3)cc21
## Result 75

## Task # return recorded residual activity for input Cc1cc(Nc2nc(-c3ccccc3)nc3ccccc23)n[nH]1
## Result 3

## Task # return recorded residual activity for input COc1cc2ncnc(Nc3ccc(Oc4ccccc4)cc3)c2cc1OC
## Result 140

## Task # return recorded residual activity for input O=C1c2ccccc2-[n+]2ccc3c([nH]c4ccccc43)c21
## Result 94

## Task # return recorded residual activity for input CO[C@H]1[C@@H](OC)C[C@H](C)[C@@H](OC)C2=CC(=O)C=C(NC(=O)/C(C)=C/C=C/[C@H](OC)[C@@H](OC(N)=O)/C(C)=C/[C@@H]1C)C2=O
## Result 78

## Task # return recorded residual activity for input Cc1cc2ncc(-c3ccccc3)nc2cc1C
## Result 74

## Task # return recorded residual activity for input CC(=O)O/N=C1\C(=C2\C(=O)Nc3cc(Br)ccc32)Nc2ccccc21
## Result 9

## Task # return recorded residual activity for input Nc1nc(Nc2ccc(S(N)(=O)=O)cc2)nn1C(=S)Nc1c(F)cccc1F
## Result -1

## Task # return recorded residual activity for input CCOc1cc2ncnc(Nc3cccc(Br)c3)c2cc1OCC
## Result 57

## Task # return recorded residual activity for input Oc1c2ccccc2c2c3c(cccc13)N=N2
## Result 24

* * *

system_tested: Angiopoietin-1 receptor (Homo sapiens)
details: at 10 µM
Could you please report measured residual activity for the items listed next?
Numbers only; they are read as %.

## Task # return recorded residual activity for input COc1cccc(-c2cc(=O)c3ccccc3o2)c1N
## Result 106

## Task # return recorded residual activity for input O=Nc1c(-c2c(O)[nH]c3ccccc23)[nH]c2ccccc12
## Result 41

## Task # return recorded residual activity for input COc1cc2ncnc(Nc3ccc(O)c(Br)c3)c2cc1OC
## Result 53

## Task # return recorded residual activity for input CC[n+]1c(/C=C/N(C)c2ccccc2)n(-c2ccccc2)c2ccc(-c3nc4ccccc4s3)cc21
## Result 30

## Task # return recorded residual activity for input O=C1c2ccccc2-[n+]2ccc3c([nH]c4ccccc43)c21
## Result 78

## Task # return recorded residual activity for input CCC(=O)Nc1ccc2ncnc(Nc3cccc(Br)c3)c2c1
## Result 70

## Task # return recorded residual activity for input CC(=O)c1ccc(N2CCOCC2)cc1O
## Result 83

## Task # return recorded residual activity for input CO[C@H]1[C@@H](OC)C[C@H](C)[C@@H](OC)C2=CC(=O)C=C(NC(=O)/C(C)=C/C=C/[C@H](OC)[C@@H](OC(N)=O)/C(C)=C/[C@@H]1C)C2=O
## Result 76

## Task # return recorded residual activity for input Cc1ccc(S(=O)(=O)/C=C/C#N)cc1
## Result 118

## Task # return recorded residual activity for input COc1cc2ncnc(N3CCN(C(=O)Nc4ccc(Oc5ccccc5)cc4)CC3)c2cc1OC
## Result 69

## Task # return recorded residual activity for input COc1ccc(OC)c2c(=S)c3ccccc3[nH]c12
## Result 94

## Task # return recorded residual activity for input NC(=O)c1ccc2[nH]c(-c3ccc(Oc4ccc(Cl)cc4)cc3)nc2c1
## Result 131

## Task # return recorded residual activity for input Cc1cncc2cccc(S(=O)(=O)N3CCCN(C(=O)CN)C[C@H]3C)c12
## Result 40

## Task # return recorded residual activity for input Cn1nc2c3c(cccc31)C(=O)c1ccccc1-2
## Result 79

## Task # return recorded residual activity for input Nc1cccc(-c2cc3c(Oc4cccc(O)c4)ncnc3[nH]2)c1
## Result 1

## Task # return recorded residual activity for input Oc1n[nH]c2nnc(-c3c(-c4ccccc4)nn4ccccc34)cc12
## Result 93

## Task # return recorded residual activity for input CNc1cc2c(Nc3cccc(Br)c3)ncnc2cn1
## Result 89

## Task # return recorded residual activity for input COc1ccc(S(=O)(=O)N(CCO)c2ccccc2CN(C)C/C=C/c2ccc(Cl)cc2)cc1
## Result 66

## Task # return recorded residual activity for input Nc1nc(Nc2ccc(S(N)(=O)=O)cc2)nn1C(=S)Nc1c(F)cccc1F
## Result -2

## Task # return recorded residual activity for input CCN(CC)CCCCN1c2ccccc2Oc2ccc(Cl)cc21
## Result 71

## Task # return recorded residual activity for input N#C/C(=C(\N)Sc1ccc(N)cc1)c1ccccc1C(F)(F)F
## Result 87

## Task # return recorded residual activity for input COc1ccc(CNc2nc(N(CCO)CCO)nc3c2ncn3C(C)C)cc1
## Result 80

## Task # return recorded residual activity for input Cn1cnc2cc3c(Nc4cccc(Br)c4)ncnc3cc21
## Result 34

## Task # return recorded residual activity for input Oc1ccc(Nc2nc(-c3ccc(Cl)cc3)cs2)cc1
## Result 131

## Task # return recorded residual activity for input C[C@@H](N)[C@H]1CC[C@H](C(=O)Nc2ccncc2)CC1
## Result 78

## Task # return recorded residual activity for input c1ccc(-c2n[nH]cc2-c2ccnc3ccccc23)nc1
## Result 90

## Task # return recorded residual activity for input CC(C)n1cnc2/c(=N/c3cccc(Cl)c3)nc(NCCO)[nH]c21
## Result 89

## Task # return recorded residual activity for input O=C(Nc1cccc(Nc2nccc(Nc3cccc(C(F)(F)F)c3)n2)c1)C1CC1
## Result 70
